Measured koff values are reported for all entries that follow.
Target: T1, biotinylated monovalent EpCAM-Fc (human EpCAM ECD-Fc knob avi-his paired with Fc hole) (human, UniProt P01857 104-328 = IgG part, biotin on the avi tag (BirA co-expression))
T1 construct: also called monovalent EpCAM-Fc construct; huEPCAM-Fc-knob (avi-His) + Fc hole (wt)
Assay: SPR ProteOn XPR36 off-rate, biotinylated monovalent EpCAM-Fc on NLC chip, 50 nM supernatant
Just the number in s⁻¹, nothing appended.

Below, each entry is followed by its recorded koff result.
Monovalent EpCAM (GG04_VH x GG06_VL) (antibody, IgG1, V domains shown, one-armed hu IgG1 PG-LALA, VH/VL-crossed Fab on Fc hole plus empty Fc knob; from supernatant) VH: EVQLVQSGAEVKKPGESLKISCKGSGYSFTNYGMNWVRQMPGKGLEWMGWINTYTGESTYSPSFQGQVTISADKSISTAYLQWSSLKASDTAMYFCARFAIKGDYWGQGTLVTVSS VL: DIQMTQSPSSLSASVGDRVTITCRASQSILHSQGITYLYWYQQKPGKAPKLLIYQMSNLQSGVPSRFSGSGSGTDFTLTISSLQPEDFATYYCAQNLEIPRTFGQGTKLEIK	0.00581
Monovalent EpCAM (GG01_VH x GG01_VL) (antibody, IgG1, V domains shown, one-armed hu IgG1 PG-LALA, VH/VL-crossed Fab on Fc hole plus empty Fc knob; from supernatant) VH: QVQLVQSGSELKKPGASVKVSCKASGYTFTNYGMNWVRQAPGQGLEWMGWINTYTGESTYAQGFTGRFVFSLDTSVSTAYLQISSLKAEDTAVYFCARFAIKGDYWGQGTLVTVSS VL: DIVMTQSPLSLPVTPGEPASISCRSSQSLLHSNGITYLYWYLQKPGQSPQLLIYQMSNRASGVPDRFSGSGSGTDFTLKISRVEAEDVGVYYCAQNLEIPRTFGQGTKLEIK	0.00438
Monovalent EpCAM (GG06_VH x GG03_VL) (antibody, IgG1, V domains shown, one-armed hu IgG1 PG-LALA, VH/VL-crossed Fab on Fc hole plus empty Fc knob; from supernatant) VH: QVQLVQSGSELKKPGASVKVSCKASGYTFTNYGMNWVRQAPGQGLEWMGWINTYTGQSTYAQGFTGRFVFSLDTSVSTAYLQISSLKAEDTAVYFCARFAIKGDYWGQGTLVTVSS VL: EIVLTQSPGTLSLSPGERATLSCRASQSLLHSNGITYLYWYQQKPGQAPRLLIYQMSNRATGIPDRFSGSGSGTDFTLTISRLEPEDFAVYYCAQNLEIPRTFGQGTKLEIK	0.00286

Lookup: Give the measured koff of Monovalent EpCAM (GG06_VH x GG07_VL) (antibody, IgG1, V domains shown, one-armed hu IgG1 PG-LALA, VH/VL-crossed Fab on Fc hole plus empty Fc knob; from supernatant) VH: QVQLVQSGSELKKPGASVKVSCKASGYTFTNYGMNWVRQAPGQGLEWMGWINTYTGQSTYAQGFTGRFVFSLDTSVSTAYLQISSLKAEDTAVYFCARFAIKGDYWGQGTLVTVSS VL: EIVLTQSPGTLSLSPGERATLSCRASQSINNYLYWYQQKPGQAPRLLIYQMSNRATGIPDRFSGSGSGTDFTLTISRLEPEDFAVYYCAQNLEIPRTFGQGTKLEIK .
Found: 0.00254

Lookup: Give the measured koff of Monovalent EpCAM (GG01_VH x GG02_VL) (antibody, IgG1, V domains shown, one-armed hu IgG1 PG-LALA, VH/VL-crossed Fab on Fc hole plus empty Fc knob; from supernatant) VH: QVQLVQSGSELKKPGASVKVSCKASGYTFTNYGMNWVRQAPGQGLEWMGWINTYTGESTYAQGFTGRFVFSLDTSVSTAYLQISSLKAEDTAVYFCARFAIKGDYWGQGTLVTVSS VL: DIVMTQSPDSLAVSLGERATINCKSSQSLLHSNGITYLYWYQQKPGQPPKLLIYQASTRESGVPDRFSGSGSGTDFTLTISSLQAEDVAVYYCAQNLEIPRTFGQGTKLEIK .
Found: 0.00494
